Test system: N20O1
Assay: Kinetics of p-NP acyl ester hydrolysis by N20O1
Format: biochemical
Details: 50 mM Tris-HCl pH 8.0, 0.3% (v/v) triton X-100, 22° C.
property: Km (µM)

Known Km results, listed for orientation:
>  <compound>
CCCCCC(=O)Oc1ccc([N+](=O)[O-])cc1 [Substrate 3c, p-NP hexanoate]

>  <Km / µM>
1400

$$$$
>  <compound>
CCCC(=O)Oc1ccc([N+](=O)[O-])cc1 [Substrate 3b, p-NP butyrate]

>  <Km / µM>
2200

$$$$

1. CCCCCCCCCCCCCCCC(=O)Oc1ccc([N+](=O)[O-])cc1 [Substrate 3h, p-NP palmitate]
2. CCCCCCCC(=O)Oc1ccc([N+](=O)[O-])cc1 [Substrate 3d, p-NP octanoate]
Between 1 and 2 , whose measured Km reads higher? Select an item and report its label.
1

---

System: RR11O2
Test: Kinetics of p-NP acyl ester hydrolysis by RR11O2
Format: biochemical
Conditions: 50 mM Tris-HCl pH 8.0, 0.3% (v/v) triton X-100, 22° C.
property: Km (µM)

Solved entries:
>  <compound>
CCCCCCCC(=O)Oc1ccc([N+](=O)[O-])cc1 [Substrate 3d, p-NP octanoate]

>  <Km [µM]>
370

$$$$
>  <compound>
CC(=O)Oc1ccc([N+](=O)[O-])cc1 [Substrate 3a, p-NP acetate]

>  <Km [µM]>
30000

$$$$
>  <compound>
CCCC(=O)Oc1ccc([N+](=O)[O-])cc1 [Substrate 3b, p-NP butyrate]

>  <Km [µM]>
2200

$$$$
>  <compound>
CCCCCC(=O)Oc1ccc([N+](=O)[O-])cc1 [Substrate 3c, p-NP hexanoate]

>  <Km [µM]>
720

$$$$
>  <compound>
CCCCCCCCCC(=O)Oc1ccc([N+](=O)[O-])cc1 [Substrate 3e, p-NP decanoate]

>  <Km [µM]>
2000

$$$$

1. CCCCCCCCCCCC(=O)Oc1ccc([N+](=O)[O-])cc1 [Substrate 3f, p-NP dodecanoate]
2. CCCCCCCCCCCCCCCC(=O)Oc1ccc([N+](=O)[O-])cc1 [Substrate 3h, p-NP palmitate]
3. CCCCCCCCCCCCCC(=O)Oc1ccc([N+](=O)[O-])cc1 [Substrate 3g, p-NP myristate]
Arrange the 3 compounds by rising Km, starting with the smallest. List the labels according to the requested ordering.
3, 1, 2
(3: 1500 µM, 1: 2800 µM, 2: 7400 µM)
